All figures here come from patent US20220289657A1.

# Test system: P. aeruginosa
# assay remarks: Rhamnolipid production assay
# Assay type: cell-based, Pseudomonas aeruginosa
# condition summary: Table 4; concentration not given
Marks after values point to notes of the source that are not given here.
Listing of entries alongside the reported Relative biological activity (%) Rhamnolipid production.

# molecule, result
records = [
    ("CCCCCCCCC(O)CC(=O)CCc1ccc(O)c(OC)c1 (stereo not shown) [Compound 7]", "69* %"),
]

Q: Form: Entry = CCCC(O)CC(=O)/C=C/c1ccc(OC)cc1 (stereo not shown) [Compound 11f] | System = P. aeruginosa | Relative biological activity (%) Rhamnolipid production = ____
Ans: 88%

Q: Form: Entry = CCCCCC(=O)C#Cc1ccc(O)c(OC)c1 [Compound 21] | System = P. aeruginosa | Relative biological activity (%) Rhamnolipid production = ____
Ans: 81* %

Q: Form: Entry = CCCCCCCCCC(O)CC(=O)CCc1ccc(O)c(OC)c1 (stereo not shown) [Compound 8] | System = P. aeruginosa | Relative biological activity (%) Rhamnolipid production = ____
Ans: 60* %

Q: Form: Entry = CCCC(O)CC(=O)/C=C/c1ccc(O)c(OC)c1 (stereo not shown) [Compound 11a] | System = P. aeruginosa | Relative biological activity (%) Rhamnolipid production = ____
Ans: 67* %

Q: Form: Entry = CCCCC[C@@H](O)C#Cc1ccc(O)c(OC)c1 [Compound 23b] | System = P. aeruginosa | Relative biological activity (%) Rhamnolipid production = ____
Ans: 77* %

Q: Form: Entry = CCCC(=O)NC1CCCC1 [Compound 1d, N-cyclopentylbutyramide, reference compound] | System = P. aeruginosa | Relative biological activity (%) Rhamnolipid production = ____
Ans: 68* %
